pIC50: −log10 of the molar value.
Hi there, I'd appreciate the recorded pIC50 for every entry that follows.

[in] Any idea what pIC50 came out for CCOc1cc(-c2ccc(F)cc2OC)nc2cc(C(=O)NCCCc3nnc[nH]3)ccc12 on hNAMPT protein (Homo sapiens (Human), UniProt P43490)?
[out] 7.30 to 8.00

[in] Short answer please: pIC50, hNAMPT protein (Homo sapiens (Human), UniProt P43490), entry CCOc1cc(-c2ccccc2)nc2cc(C(=O)NCCCc3nnc[nH]3)ccc12
[out] 7.30 to 8.00

[in] Requested read-out pIC50, target or system hNAMPT protein (Homo sapiens (Human), UniProt P43490), entry CCOc1cc(-c2cncnc2)nc2cc(C(=O)NCCCc3nnc[nH]3)ccc12
[out] < 7.00

[in] Return pIC50 measured with hNAMPT protein (Homo sapiens (Human), UniProt P43490) given this compound: CCOc1cc(-c2ccnc(C)c2)nc2cc(C(=O)NCc3nc4cnccc4[nH]3)ccc12
Sequence (P43490 whole entry): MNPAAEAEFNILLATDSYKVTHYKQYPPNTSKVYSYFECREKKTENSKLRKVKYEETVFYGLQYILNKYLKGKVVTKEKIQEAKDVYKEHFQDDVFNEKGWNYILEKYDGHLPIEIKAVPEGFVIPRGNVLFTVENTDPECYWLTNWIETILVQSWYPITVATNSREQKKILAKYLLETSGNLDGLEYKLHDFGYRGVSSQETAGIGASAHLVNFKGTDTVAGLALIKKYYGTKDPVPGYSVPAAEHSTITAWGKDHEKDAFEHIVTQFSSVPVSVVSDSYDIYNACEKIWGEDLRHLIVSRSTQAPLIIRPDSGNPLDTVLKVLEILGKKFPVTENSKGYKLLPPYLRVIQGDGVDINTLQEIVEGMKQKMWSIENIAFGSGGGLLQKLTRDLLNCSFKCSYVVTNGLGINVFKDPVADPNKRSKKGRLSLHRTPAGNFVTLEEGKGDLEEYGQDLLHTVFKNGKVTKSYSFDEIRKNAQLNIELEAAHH
[out] > 8.00

[in] What is its pIC50 for hNAMPT protein (Homo sapiens (Human), UniProt P43490)? Entry: CCOc1cc(-c2ccc(Cl)s2)nc2cc(C(=O)NCCCc3nnc[nH]3)ccc12
[out] > 8.00

[in] So what pIC50 did CCOc1cc(-c2ccc(F)c(Cl)c2)nc2cc(C(=O)NCCCc3ncc[nH]3)ccc12 get with hNAMPT protein (Homo sapiens (Human), UniProt P43490)?
[out] > 8.00

[in] Query the reported pIC50 for hNAMPT protein (Homo sapiens (Human), UniProt P43490); item: CCOc1cc(-c2ccc(F)cc2)nc2cc(C(=O)NCCc3nnc(N)[nH]3)ccc12
[out] < 7.00

[in] Param readout = pIC50; param system = hNAMPT protein (Homo sapiens (Human), UniProt P43490); param query = CCOc1cc(-c2ccn(C)c(=O)c2)nc2cc(C(=O)NCCCc3nnc[nH]3)ccc12 ; response: value
[out] 7.30 to 8.00

[in] // map CCOc1cc(-c2ccc(C(F)(F)F)nc2)nc2cc(C(=O)NCCCc3nnc[nH]3)ccc12 to recorded pIC50 (system: hNAMPT protein (Homo sapiens (Human), UniProt P43490))
[out] 7.30 to 8.00

[in] Notebook entry, hNAMPT protein (Homo sapiens (Human), UniProt P43490) assay: pIC50 of CCOc1cc(-c2ccc(F)cc2OC)nc2cc(C(=O)NCCCc3[nH]nnc3C)ccc12 = ?
[out] 7.30 to 8.00

[in] API: value(readout= pIC50, system= hNAMPT protein (Homo sapiens (Human), UniProt P43490), query= CC(C)Oc1cc(-c2ccc(F)cc2)nc2cc(C(=O)NCCCc3ncc[nH]3)ccc12 )
[out] > 8.00

[in] Please provide the recorded pIC50 for CCOc1cc(-c2ccc(Cl)s2)nc2cc(C(=O)NCc3nc4cnccc4[nH]3)ccc12 , tested on hNAMPT protein (Homo sapiens (Human), UniProt P43490).
[out] > 8.00

[in] Item CCOc1cc(-c2cc(F)ccc2OC)nc2cc(C(=O)NCc3nc4cnccc4[nH]3)ccc12 with hNAMPT protein (Homo sapiens (Human), UniProt P43490) - pIC50?
[out] > 8.00

[in] Identify the measured pIC50 of CCOc1cc(-c2ccc(F)cc2)nc2cc(C(=O)NCCCc3nccs3)ccc12 for hNAMPT protein (Homo sapiens (Human), UniProt P43490).
[out] > 8.00

[in] Record lookup: for hNAMPT protein (Homo sapiens (Human), UniProt P43490), what pIC50 belongs to CCOc1cc(-c2ccc(=O)n(C)c2)nc2cc(C(=O)NCCCc3cnn[nH]3)ccc12 ?
[out] > 8.00

[in] Lab request: please report pIC50 under test system hNAMPT protein (Homo sapiens (Human), UniProt P43490) for CCOc1cc(-c2ccc(F)cc2)nc2cc(C(=O)NCCc3cn[nH]c3)ccc12
[out] 7.30 to 8.00

[in] Write down the reported pIC50 of CCOc1cc(-c2ccc(F)cc2)nc2cc(C(=O)NCC3CC3c3ncc[nH]3)ccc12 (single isomer, unassigned) [Compound I-51] , test system: hNAMPT protein (Homo sapiens (Human), UniProt P43490).
[out] 7.30 to 8.00

[in] Provide the documented pIC50 with hNAMPT protein (Homo sapiens (Human), UniProt P43490) as the system for CCOc1cc(-c2cccnc2OC)nc2cc(C(=O)NCCc3cnn[nH]3)ccc12
[out] 7.00 to 7.30

[in] Please tell me: pIC50 of CCOc1cc(C2CCOCC2)nc2cc(C(=O)NCCCc3nnc[nH]3)ccc12 , system hNAMPT protein (Homo sapiens (Human), UniProt P43490)?
[out] < 7.00

[in] Which measured pIC50 belongs to CCOc1cc(-c2ccc(C)nc2OC)nc2cc(C(=O)NCCCc3[nH]nnc3C)ccc12 , tested on hNAMPT protein (Homo sapiens (Human), UniProt P43490)?
[out] 7.30 to 8.00

[in] Under hNAMPT protein (Homo sapiens (Human), UniProt P43490): pIC50 value of CCOc1c(F)c(-c2ccc(F)cc2)nc2cc(C(=O)NCCCc3nnc[nH]3)ccc12 ?
[out] > 8.00

[in] Give pIC50 (hNAMPT protein (Homo sapiens (Human), UniProt P43490)) of the following compound: CCOc1cc(-c2ccc(C)nc2OC)nc2cc(C(=O)NCc3nc4cnccc4[nH]3)ccc12
[out] > 8.00

[in] pIC50 of CCOc1cc(-c2ccc(F)cc2)nc2cc(C(=O)NCCc3ccc(C#N)cc3)ccc12 on hNAMPT protein (Homo sapiens (Human), UniProt P43490)?
[out] > 8.00

[in] Item CCOc1cc(-c2ccnc(OC)c2)nc2cc(C(=O)NCCCc3cnn[nH]3)ccc12 with hNAMPT protein (Homo sapiens (Human), UniProt P43490) - pIC50?
[out] > 8.00

[in] Kindly state the measured pIC50 obtained for CCOc1cc(-c2ccc(OC)nc2OC)nc2cc(C(=O)NCCCc3nnc[nH]3)ccc12 with hNAMPT protein (Homo sapiens (Human), UniProt P43490).
[out] 7.30 to 8.00

[in] Reported pIC50 for hNAMPT protein (Homo sapiens (Human), UniProt P43490), given CCOc1cc(-c2ccc(F)cc2)nc2cc(C(=O)NCCCc3ccnnc3)ccc12 ?
[out] > 8.00

[in] Notebook: pull reported pIC50 for hNAMPT protein (Homo sapiens (Human), UniProt P43490), entry CCOc1cc(-c2ccc(F)cc2)nc2cc(C(=O)NCCc3n[nH]nc3C)ccc12
[out] > 8.00

[in] Notebook entry, hNAMPT protein (Homo sapiens (Human), UniProt P43490) assay: pIC50 of CCOc1cc(-c2cc(OC)ncc2Cl)nc2cc(C(=O)NCCCc3nnc[nH]3)ccc12 = ?
[out] > 8.00

[in] Under hNAMPT protein (Homo sapiens (Human), UniProt P43490): pIC50 value of CCCc1cc(-c2ccc(F)cc2)nc2cc(C(=O)NCCc3c[nH]nc3C)ccc12 ?
[out] < 7.00

[in] Any idea what pIC50 came out for CCOc1cc(-c2ccc(=O)n(C)c2)nc2cc(C(=O)NCCCc3nnc[nH]3)ccc12 on hNAMPT protein (Homo sapiens (Human), UniProt P43490)?
[out] 7.30 to 8.00

[in] API: value(readout= pIC50, system= hNAMPT protein (Homo sapiens (Human), UniProt P43490), query= CCCc1cc(-c2ccc(F)cc2)nc2cc(C(=O)NCCCc3ncn[nH]3)ccc12 )
[out] 7.30 to 8.00

[in] Tell me reported pIC50 for CCCc1nc(-c2ccc(Cl)cc2)nc2cc(C(=O)NCCCc3ncc[nH]3)ccc12 , tested with hNAMPT protein (Homo sapiens (Human), UniProt P43490).
[out] > 8.00
